Values compiled from PubChem BioAssay (NCATS).

settings: Ebola virus entry assay, reporter ratio channel; Channel type: primary
Calls of active or inactive are those of the source. How the calls were made is not given here.
quantityKind: AC50

compound=Cc1ccc(=O)n(-c2ccccc2)c1 result=inactive
compound="CC(C)(Cc1c[nH]c2ccccc12)NCC(O)COc1ccccc1C#N (stereo not given)" result="25.1 µM (active)"
compound=O=C(O)CP(=O)(O)O result=inactive
compound=CC(C)(C)c1nnc(NS(=O)(=O)c2ccc(N)cc2)s1 result=inactive
compound="CC(CC(C#N)(c1ccccc1)c1ccccc1)N(C)C (stereo not given)" result="14.1 µM (active)"
compound="CN1[C@@H]2CC[C@H]1CC(OC(=O)c1c[nH]c3ccccc13)C2 (stereo not given in full)" result="39.8 µM (active)"

# per-item lookup of AC50; items listed below
1. O=C(O)C1CCC1
2. Nc1ccc(N)cc1
3. Cn1c(=O)c2c(ncn2C)n(C)c1=O
4. Cc1[nH]c(C)c(Cl)c(=O)c1Cl

Found:
inactive
inactive
inactive
inactive

###

conditions: Ebola virus entry assay, blue channel fluorescence
The source made the active and inactive calls. No rule for the calls is given here.
Choose one outcome from this list and give only that: yes (1) for active, no (0) for inactive

Example entries begin here.
compound=CC(=O)[C@H]1CC[C@H]2[C@@H]3CC=C4C[C@@H](O)CC[C@]4(C)[C@H]3CC[C@]12C assignedclass="no (0)"
compound=O=C(CCN1CCN(CCO)CC1)N1c2ccccc2Sc2ccc(C(F)(F)F)cc21 assignedclass="no (0)"
compound=C[C@@H]1C[C@@H]([C@H](O)CC2CC(=O)NC(=O)C2)C(=O)[C@@H](C)C1 assignedclass="no (0)"
compound=CCc1cccc(N(C)C(N)=Nc2cccc3ccccc23)c1 assignedclass="yes (1)"
compound=O=C(CCCN1CCC(O)(c2cccc(C(F)(F)F)c2)CC1)c1ccc(F)cc1 assignedclass="yes (1)"
compound=O=C1CC2(CCCC2)CC(=O)N1CCCCN1CCN(c2ncccn2)CC1 assignedclass="no (0)"
compound=c1cc2c(c(N3CCNCC3)c1)OCCO2 assignedclass="no (0)"
compound=COC(=O)C1=C(C)NC(C)=C(C(=O)O[C@@H]2CCCN(Cc3ccccc3)C2)[C@@H]1c1cccc([N+](=O)[O-])c1 assignedclass="yes (1)"

Turning now to a further record.
Lookup: Dear all, I need the recorded test outcome for CCC1(c2cccc(O)c2)CCCCN(C)C1 (stereo unspecified) , thank you.
Found: yes (1)

###

settings: Ebola virus entry assay, blue channel fluorescence
Activity calls are given as the source filed them. No rule for the calls is given here.
quantityKind: AC50

Below, each entry is followed by its recorded AC50 result.
molecule=COc1ccc(CCN2CCC(Nc3nc4ccccc4n3Cc3ccc(F)cc3)CC2)cc1 quantitykind=AC50 result="5.01 µM (active)"
molecule="CC(Oc1c(Cl)cccc1Cl)C1=NCCN1 (configuration not stated)" quantitykind=AC50 result="39.8 µM (active)"
molecule="O[C@@H](COc1cccc2ncccc12)CN1CCN(C2c3ccccc3[C@@H]3[C@H](c4ccccc42)C3(F)F)CC1 (some centres not stated)" quantitykind=AC50 result="10 µM (active)"
molecule=CN(C)CCc1c[nH]c2cccc(O)c12 quantitykind=AC50 result="35.5 µM (active)"
molecule=COC(=O)[C@@H](N)Cc1ccc(O)c(O)c1 quantitykind=AC50 result=inactive
molecule=O=C(Nc1ccc(C(=O)O)c(O)c1)c1ccccc1 quantitykind=AC50 result=inactive

Lookup: Data request, read-out AC50, for CC1COC2(c3ccccc3Cl)c3cc(Cl)ccc3NC(=O)CN12 (configuration not stated)
Found: 28.2 µM (active)
